tested_on: Large T antigen (Simian virus 40)
procedure_details: SV40 large T antigen inhibitors, biochemical (AID 1903)
test_conditions: SV40 large T antigen ATPase/helicase inhibition assay; at 20 µM; hits give high values
Out of some 310,000 compounds screened, about 1,200 (0.39%) were called active. These entries were drawn from the full list. Results with a measured potency or affinity are listed apart.
inhibition below 7% gives F; inhibition at or above it gives T.

Prompt: Please indicate if the recorded inhibition for N#Cc1cc(S(=O)(=O)N2CCOCC2)ccc1N1CCOCC1 meets or exceeds 7%.
Response: T

Prompt: And for O=C1NC(=O)/C(=C/c2ccccc2Cl)N1 ?
Response: F

Prompt: Ok, now Cc1ccc(C)n1-c1cc(S(=O)(=O)N2CCOCC2)ccc1N1CCCC1
Response: F

Prompt: Further, for O=S(=O)(c1ccc(N2CCOCC2)c(Cl)c1)N1CCOCC1 ?
Response: T

Prompt: Next compound up: COc1ccc(C(=O)Nc2nccs2)cc1
Response: F

Prompt: Same lookup for CC(C)C1N=C2c3ccccc3N=C(SCC#N)N2C1=O (stereo unspecified) , please.
Response: F

Prompt: Also, CCCCN(C(=O)c1ccc([N+](=O)[O-])o1)c1c(N)n(CC(C)C)c(=O)[nH]c1=O please.
Response: T

Prompt: And for O=C(c1cc2ccccc2oc1=O)N1CCN(S(=O)(=O)c2ccccc2)CC1 ?
Response: T

Prompt: Next record, please: COc1cc(/C=N/NC(=O)CCn2c3ccccc3c3ccccc32)ccc1O
Response: T

Prompt: Entry to check: CC(C)C1N=C2c3ccccc3N=C(SCC(=O)NCCc3ccc(S(N)(=O)=O)cc3)N2C1=O (stereo unspecified)
Response: F

Prompt: // next record COc1ccc(-c2cnnn2-c2ccc(NC(=O)/C=C/c3ccc(OC)c(OC)c3)cc2)cc1
Response: F

---

tested_on: Large T antigen (Simian virus 40) (UniProt P03070)
Sequence (P03070 whole entry, looked up): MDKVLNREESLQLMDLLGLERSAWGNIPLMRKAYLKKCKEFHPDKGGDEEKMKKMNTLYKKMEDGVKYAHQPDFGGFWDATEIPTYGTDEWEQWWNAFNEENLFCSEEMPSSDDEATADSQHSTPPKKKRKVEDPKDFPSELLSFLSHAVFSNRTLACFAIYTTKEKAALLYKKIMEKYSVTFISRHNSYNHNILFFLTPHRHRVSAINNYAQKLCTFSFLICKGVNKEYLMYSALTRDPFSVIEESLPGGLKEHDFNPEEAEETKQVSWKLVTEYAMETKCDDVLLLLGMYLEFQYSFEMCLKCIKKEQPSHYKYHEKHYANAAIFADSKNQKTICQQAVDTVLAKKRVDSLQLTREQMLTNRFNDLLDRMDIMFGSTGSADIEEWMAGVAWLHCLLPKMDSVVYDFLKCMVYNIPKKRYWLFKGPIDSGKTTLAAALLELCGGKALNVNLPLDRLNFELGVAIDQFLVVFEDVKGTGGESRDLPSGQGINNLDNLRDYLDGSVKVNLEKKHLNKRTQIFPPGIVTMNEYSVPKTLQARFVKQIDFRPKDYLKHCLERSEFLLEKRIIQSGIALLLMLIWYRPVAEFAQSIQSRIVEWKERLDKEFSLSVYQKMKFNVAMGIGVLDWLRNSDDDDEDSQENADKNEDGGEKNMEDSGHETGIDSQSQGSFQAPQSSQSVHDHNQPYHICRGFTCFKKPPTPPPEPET
procedure_details: SV40 large T antigen inhibitors, biochemical (AID 1903)
test_conditions: SV40 large T antigen ATPase/helicase inhibition assay; at 20 µM; hits give high values
The whole screen tested about 310,000 compounds, of which about 1,200 (0.39%) were called active. Only a sample is shown. Entries with a potency or affinity are not part of this list.
For each of the molecules below, state its inhibition.
Unit % implied. Number only.

Prompt: Quick one: inhibition of N#Cc1ccc(Oc2ccc(S(=O)(=O)N3CCOCC3)cn2)cc1 ?
Response: 8.88

Prompt: Thanks! And COc1cc(C(=O)O)ccc1Cl ?
Response: 8.61

Prompt: Now try Cc1cccc(N=Nc2cnc(N)s2)c1 .
Response: 14.7

Prompt: // same read-out, input: O=C(COc1ccccc1Cl)NCc1nc(-c2ccccc2)no1
Response: 10.2

Prompt: Now try CCC1(C)N=c2c(c(=O)n(C)c(=O)n2C)=NO1 (configuration not stated) .
Response: 2.8

Prompt: Also check CCc1ccc(/C=C2/Sc3ccccc3N(CC(=O)NCC3CCCO3)C2=O)cc1 (configuration not stated)
Response: 3.57

Prompt: Follow-up item: N#Cc1cccc2cnccc12
Response: 7.69

Prompt: Okay, and Cc1csc2nc(CSc3nc4ccccc4o3)c(Br)n12 ?
Response: 1.48

Prompt: Record: O=C(/C(=C(\[O-])c1ccccc1)[n+]1ccc2ccccc2c1)c1ccc([N+](=O)[O-])cc1
Response: 15

Prompt: Same again, this time with c1cc(CNc2ccc3c(c2)OCO3)ccn1
Response: 25.9

Prompt: Next molecule: O=[N+]([O-])c1cccc(S(=O)(=O)c2cccc([N+](=O)[O-])c2)c1
Response: 3.63

Prompt: // same read-out, input: Cc1ccc(NC(=O)Cn2sc3nc(C)cc(C)c3c2=O)c(Cl)c1
Response: 5.12
